- ASSAY_PROCEDURE: Determination of thiol pKa values (pH titration monitored by UV absorbance at 238 nm)
- Format: physicochemical
- SETUP_CONDITIONS: Thiol pKa (second value, in parentheses)
Kindly supply the reported pKa values for the records listed here.
Please state the value as a number alone, without comment.

Req: What measured pKa goes with CN(C(=O)CS)N(C)C(=O)CS [DMH, reference compound] ?
Resp: 9.1

Req: # lookup: pKa of SCc1nccnc1CS [drawing 7]
Resp: 9

---

- ASSAY_PROCEDURE: Determination of thiol pKa values (pH titration monitored by UV absorbance at 238 nm)
- Assay type: physicochemical
- SETUP_CONDITIONS: Thiol pKa (first, lower value)
RECORDED_METRIC: pKa

Req: Need pKa, item CN(C(=O)CS)N(C)C(=O)CS [DMH, reference compound]
Resp: 8

Req: Find the recorded pKa belonging to SCc1nccnc1CS [drawing 7] and report it.
Resp: 7.6

---

- ASSAY_PROCEDURE: Determination of BMMP solubility in buffered water (1H NMR)
- Type: physicochemical
- SETUP_CONDITIONS: aqueous buffer, thermodynamic from solid; 50 mM sodium phosphate buffer, pH 7.0
RECORDED_METRIC: solubility (mM)
Write the number in mM without appending the unit.

Req: Please give the measured solubility for this molecule: SCc1nccnc1CS
Resp: 64
